- System: PC12
- runDescription: in vitro killing activity
- Format: cell-based, Rat
- conditionContext: 120 time of incubation
reportedMetric: IC50 (nM)

CC[C@@]1(O)C(=O)OCc2c1cc1n(c2=O)Cc2c-1nc1cc(F)c(C)c3c1c2[C@@H](NC(=O)CO)CC3 [Dxd, reference compound] : 9.19
CCc1c2c(nc3ccc(O)cc13)-c1cc3c(c(=O)n1C2)COC(=O)[C@]3(O)CC [SN38, reference compound] : 5.66
